Experiment: soluble on expression in E. coli; label from the status in PepcDB or PDB records
Quantity Name: soluble on expression in E. coli

- MGKNRNKNKDKDPYIGPAKTGRNDSDSDDSESSAYTYNEDIQSIMGDVEDMNDVYDQLVDNLDRAQDKNSTTRIDGLHRVNLALTAKPAPEFINRNKETIMAVCSRMANKPDSEAQFLARLVGLVAVQAGEEISEMIAEPMSQMRTILMDASRCVFLRTACATSLAIVTRIACSEDEEVTANAKACRFAWAHTKVSGSANDIGHAKLTINDAVADQPKIVTLLSSNQLEVRLAAAETLAFLHEFMQDARPGFRFPNKEHVLSLLDQMVNDSSKKKTKKDKRAQRYAVRDIRAFIADEDDAPEVNVKIGQQTLSLDSCAIKIFYDTTCDLLHGGLAQQLLHNEVLRDVFDLGPIALEPAESANKQSRLAVHEAADKHRNQVRGKQRDKRSTVY: not soluble
- MLITSYNPSELGDTLITILRPDTATQTIETHANVTRISDADSGETLGYNFFDVSKTLGDLDANGQVHLTAEQVEQLNNLLKTNDFEPELVLDTDPKFVVGYVESAEAHPKSDHLQITKTNVGLEQPLQIVSGSPNMQANILVVVAKVGAMMPSGLIIWPGELRGVESDGMIVSGRELRLPNAPQRPGALILPADYQPVGAAFDFKRAQTLFTALEHHHHHH: not soluble

Sourced from the DeepSol protein solubility set
